Data credit: patent US20220125947A1

Target: T1, TCR gamma/delta constant region (TRGDC) (human, UniProt P0CF51 1-173; B7Z8K6 1-153)
T1 chain (looked up) 1: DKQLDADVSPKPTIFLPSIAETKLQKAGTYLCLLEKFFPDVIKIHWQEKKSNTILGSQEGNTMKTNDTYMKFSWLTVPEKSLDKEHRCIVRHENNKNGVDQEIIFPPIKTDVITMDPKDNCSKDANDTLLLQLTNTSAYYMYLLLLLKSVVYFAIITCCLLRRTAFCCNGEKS
T1 chain (looked up) 2: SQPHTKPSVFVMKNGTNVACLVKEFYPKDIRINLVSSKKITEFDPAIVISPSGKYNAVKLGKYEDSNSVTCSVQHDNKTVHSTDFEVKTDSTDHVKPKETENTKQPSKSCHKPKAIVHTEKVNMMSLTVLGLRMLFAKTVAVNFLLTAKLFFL
Experiment: cell-based or functional assay
OBSERVED_PROPERTY: CD71+ (Vg9+ cells), flow staining (%)
Respond numerically; units are % and should not be typed.

As a guide, the following entries are already answered.
BINDER	OBSERVED_PROPERTY	READING_UNIT	VALUE_REPORTED
VG9B369 (antibody, human IgG1, kappa, V domains shown) VH: EVQLLESGPTLVKPTQTLTLTCTFSGFSLSTIGVGVGWIRQPPGKALEWLSLIYWNDDKRYNPSLKSRLTITKDTSKNQVVLTMTNMDPVDTATYYCAHSHDWVHAFDIWGQGTMVTVSS VL: DIVMTQSPSSLSASVGDRVTITCQASQDISHYLNWYQQKPGKAPKFLIYDASNLDTGVPSRFSGSGSGTDFTFTISSLQPEDIATYYCQQYDNFPLTFGGGTKVEIKR	CD71+ (Vg9+ cells), flow staining	%	92.4
VG9B144 (antibody, human IgG1, lambda, V domains shown) VH: QVQLVQSGAEVKKPGASVKVSCKASGYTFTGYYMHWMRQAPGQGLEWMGWINPNSGATNKEQKFQGRVTMTRDTSISTAYMELSRLRSDDTAVYYCAREDDAFDVWGQGTMVTVSS VL: SSELTQDPAVSVALGQTVRITCQGDNLRNYYATWFQQKPGQAPVLVFFGKNNRPSGIPDRFSGSSSGDTASLTITGAQAEDEADYYCNSRDSSGNHVVFGGGTKLTVLG	CD71+ (Vg9+ cells), flow staining	%	89.6

**Q:** Give the reported value of CD71+ (Vg9+ cells), flow staining for this record: VG9B112 (antibody, human IgG1, kappa, V domains shown) VH: QVQLQQSGPGLVKPSQTLSLTCAISGDSVSSNSAAWNWIRQSPSRGLEWLGGTYYRSKWFNNYAVSVKSRITINPDTSTNQFSLQLNSVTPADTAVYYCARGEWGLRDAFDIWGQGTMVTVSS VL: DIQMTQSPSFLSASVGDRVIITCRASQGIHSYLAWYQQKPGKVPKLLIYVASTLQSGVPSRFSGSGSGTEFTLTISSLQPEDFATYYCQQLNSYPWTFGQGTKLEIKR
**A:** 91.8

**Q:** Give the reported value of CD71+ (Vg9+ cells), flow staining for this record: VG9B387 (antibody, human IgG1, lambda, V domains shown) VH: EVQLVESGAEVKKPGASVKVSCKASGFTFTGYYLQWVRQAPGQGLEWMGWINPNSGYTDYAQRFQDRVTMTRDTSINTAYMELSRLRSDDTAVYYCARLDDAFDVWGQGTMVTVSS VL: SYELTQDPAVSVALGQTVRITCQGDSLRNYYAIWYQQKPGQAPVLVIFGKNNRPSGIPDRFSGSSSGTTASLTITGTQAEDEADYYCNSRDSSGNHWVFGGGTKLTVLG
**A:** 89.7
